# measured_on: Endothelin-converting enzyme 1 (Cavia porcellus)
# measurement_description: In vitro inhibition of phosphoramidon-sensitive membrane bound zinc metalloprotease Endothelin-converting enzyme from partially purified guinea pig lungs
reported_property: IC50 (nM)
Dear colleague, please return just the value in nM, with no unit written.

Use the examples below as a reference point.
[[record]]
compound_structure = "CC(=O)N[C@@H](Cc1ccccc1)P(=O)(O)CC1(C(=O)N[C@@H](Cc2c[nH]c3ccccc23)C(=O)O)CCCC1"
value_reported = 600

[[record]]
compound_structure = "O=C(N[C@@H](Cc1ccccc1)P(=O)(O)CC1(C(=O)N[C@@H](Cc2c[nH]c3ccccc23)C(=O)O)CCCC1)c1ccccc1"
value_reported = 250


# evaluate next
Would you mind telling me what IC50 value was observed for COc1ccc(C(=O)N[C@@H](Cc2ccccc2)P(=O)(O)CC2(C(=O)N[C@@H](Cc3c[nH]c4ccccc34)C(=O)O)CCCC2)cc1 ?
160

---

Items are presented alongside their recorded pIC50.
# measured_on: Endothelin-converting enzyme 1 (Cavia porcellus)
# measurement_description: In vitro inhibition of phosphoramidon-sensitive membrane bound zinc metalloprotease Endothelin-converting enzyme from partially purified guinea pig lungs
On this scale, pIC50 is minus log10 of a concentration expressed in M (mol/L).

Observe how each entry below is paired with its result.
[[record]]
compound_structure = "NCc1ccc(C(=O)N[C@@H](Cc2ccccc2)P(=O)(O)CC2(C(=O)N[C@@H](Cc3c[nH]c4ccccc34)C(=O)O)CCCC2)cc1"
measured_on = "Endothelin-converting enzyme 1 (Cavia porcellus)"
value_reported = 7.05

[[record]]
compound_structure = "CC(C)C[C@H](NP(=O)(O)O)C(=O)N[C@@H](Cc1c[nH]c2ccccc12)C(=O)O"
measured_on = "Endothelin-converting enzyme 1 (Cavia porcellus)"
value_reported = 5.82


// returns reported pIC50 for input O=C(N[C@@H](Cc1ccccc1)P(=O)(O)CC1(C(=O)N[C@@H](Cc2ccc(O)cc2)C(=O)O)CCCC1)OCc1ccccc1
6.92

# lookup: pIC50 of CC(C)(C)C(=O)N[C@@H](Cc1ccccc1)P(=O)(O)CC1(C(=O)N[C@@H](Cc2c[nH]c3ccccc23)C(=O)O)CCCC1
6.26

Returns the measured pIC50 for the input compound. Input: O=C(N[C@@H](Cc1ccccc1)P(=O)(O)CC1(C(=O)N[C@@H](Cc2c[nH]c3ccccc23)C(=O)O)CCCC1)OCc1ccccc1
6.72
